Could you please report measured log10(minimum concentration inducing gyrase-mediated DNA cleavage) for the items listed next?
- System: Escherichia coli
- assay-procedure: Escherichia coli DNA cleavage endpoint value which is the minimum amount required (in micro g/mL) to induce detectable cleavage of supercoiled pBR322 substrate to linear form (gyrase)
- Type: functional
- experimental-context: read-out: MIC
The common logarithm of minimum concentration inducing gyrase-mediated DNA cleavage in µg/mL is what is listed.

Asked: Please report the recorded log10(minimum concentration inducing gyrase-mediated DNA cleavage) for Cl.O.O=C(O)c1cn(CCF)c2c(F)c(N3CCN4CCC3CC4)c(F)cc2c1=O .
Given back: -0.72

Asked: Please report the recorded log10(minimum concentration inducing gyrase-mediated DNA cleavage) for C=Cn1cc(C(=O)O)c(=O)c2cc(F)c(N3CC[C@H]4CCC(C3)N4C)cc21 .
Given back: 0.80

Asked: Please report the recorded log10(minimum concentration inducing gyrase-mediated DNA cleavage) for CCn1cc(C(=O)O)c(=O)c2cc(F)c(N3CCN4CCC3CC4)c(F)c21.Cl.O .
Given back: 0.19

Asked: Please report the recorded log10(minimum concentration inducing gyrase-mediated DNA cleavage) for CN1C[C@@H]2C[C@H]1CN2c1c(F)cc2c(=O)c(C(=O)O)cn(-c3ccc(F)cc3)c2c1Cl .
Given back: 0.19

Asked: Please report the recorded log10(minimum concentration inducing gyrase-mediated DNA cleavage) for O=C(O)c1cn(C2CC2)c2c(F)c(N3CCN4CCC3CC4)c(F)cc2c1=O .
Given back: -0.41

Asked: Please report the recorded log10(minimum concentration inducing gyrase-mediated DNA cleavage) for CCn1cc(C(=O)O)c(=O)c2cc(F)c(N3CCNCC3)cc21 .
Given back: -0.11

Asked: Please report the recorded log10(minimum concentration inducing gyrase-mediated DNA cleavage) for O=C(O)c1cn(C2CC2)c2cc(N3C[C@@H]4C[C@H]3CN4)c(F)cc2c1=O .
Given back: -0.41

Asked: Please report the recorded log10(minimum concentration inducing gyrase-mediated DNA cleavage) for CN1[C@@H]2CCC[C@H]1CN(c1cc3c(cc1F)c(=O)c(C(=O)O)cn3C1CC1)C2.Cl .
Given back: 0.19

Asked: Please report the recorded log10(minimum concentration inducing gyrase-mediated DNA cleavage) for Cl.O.O=C(O)c1cn(C2CC2)c2cc(N3CCN4CCC3CC4)c(F)cc2c1=O .
Given back: -0.41

The values you see were collected from ChEMBL document CHEMBL1126160.
